Record: pIC50 reported on full-length LRRK2 wild type (Homo sapiens).
Sequence (Q5S007 whole entry): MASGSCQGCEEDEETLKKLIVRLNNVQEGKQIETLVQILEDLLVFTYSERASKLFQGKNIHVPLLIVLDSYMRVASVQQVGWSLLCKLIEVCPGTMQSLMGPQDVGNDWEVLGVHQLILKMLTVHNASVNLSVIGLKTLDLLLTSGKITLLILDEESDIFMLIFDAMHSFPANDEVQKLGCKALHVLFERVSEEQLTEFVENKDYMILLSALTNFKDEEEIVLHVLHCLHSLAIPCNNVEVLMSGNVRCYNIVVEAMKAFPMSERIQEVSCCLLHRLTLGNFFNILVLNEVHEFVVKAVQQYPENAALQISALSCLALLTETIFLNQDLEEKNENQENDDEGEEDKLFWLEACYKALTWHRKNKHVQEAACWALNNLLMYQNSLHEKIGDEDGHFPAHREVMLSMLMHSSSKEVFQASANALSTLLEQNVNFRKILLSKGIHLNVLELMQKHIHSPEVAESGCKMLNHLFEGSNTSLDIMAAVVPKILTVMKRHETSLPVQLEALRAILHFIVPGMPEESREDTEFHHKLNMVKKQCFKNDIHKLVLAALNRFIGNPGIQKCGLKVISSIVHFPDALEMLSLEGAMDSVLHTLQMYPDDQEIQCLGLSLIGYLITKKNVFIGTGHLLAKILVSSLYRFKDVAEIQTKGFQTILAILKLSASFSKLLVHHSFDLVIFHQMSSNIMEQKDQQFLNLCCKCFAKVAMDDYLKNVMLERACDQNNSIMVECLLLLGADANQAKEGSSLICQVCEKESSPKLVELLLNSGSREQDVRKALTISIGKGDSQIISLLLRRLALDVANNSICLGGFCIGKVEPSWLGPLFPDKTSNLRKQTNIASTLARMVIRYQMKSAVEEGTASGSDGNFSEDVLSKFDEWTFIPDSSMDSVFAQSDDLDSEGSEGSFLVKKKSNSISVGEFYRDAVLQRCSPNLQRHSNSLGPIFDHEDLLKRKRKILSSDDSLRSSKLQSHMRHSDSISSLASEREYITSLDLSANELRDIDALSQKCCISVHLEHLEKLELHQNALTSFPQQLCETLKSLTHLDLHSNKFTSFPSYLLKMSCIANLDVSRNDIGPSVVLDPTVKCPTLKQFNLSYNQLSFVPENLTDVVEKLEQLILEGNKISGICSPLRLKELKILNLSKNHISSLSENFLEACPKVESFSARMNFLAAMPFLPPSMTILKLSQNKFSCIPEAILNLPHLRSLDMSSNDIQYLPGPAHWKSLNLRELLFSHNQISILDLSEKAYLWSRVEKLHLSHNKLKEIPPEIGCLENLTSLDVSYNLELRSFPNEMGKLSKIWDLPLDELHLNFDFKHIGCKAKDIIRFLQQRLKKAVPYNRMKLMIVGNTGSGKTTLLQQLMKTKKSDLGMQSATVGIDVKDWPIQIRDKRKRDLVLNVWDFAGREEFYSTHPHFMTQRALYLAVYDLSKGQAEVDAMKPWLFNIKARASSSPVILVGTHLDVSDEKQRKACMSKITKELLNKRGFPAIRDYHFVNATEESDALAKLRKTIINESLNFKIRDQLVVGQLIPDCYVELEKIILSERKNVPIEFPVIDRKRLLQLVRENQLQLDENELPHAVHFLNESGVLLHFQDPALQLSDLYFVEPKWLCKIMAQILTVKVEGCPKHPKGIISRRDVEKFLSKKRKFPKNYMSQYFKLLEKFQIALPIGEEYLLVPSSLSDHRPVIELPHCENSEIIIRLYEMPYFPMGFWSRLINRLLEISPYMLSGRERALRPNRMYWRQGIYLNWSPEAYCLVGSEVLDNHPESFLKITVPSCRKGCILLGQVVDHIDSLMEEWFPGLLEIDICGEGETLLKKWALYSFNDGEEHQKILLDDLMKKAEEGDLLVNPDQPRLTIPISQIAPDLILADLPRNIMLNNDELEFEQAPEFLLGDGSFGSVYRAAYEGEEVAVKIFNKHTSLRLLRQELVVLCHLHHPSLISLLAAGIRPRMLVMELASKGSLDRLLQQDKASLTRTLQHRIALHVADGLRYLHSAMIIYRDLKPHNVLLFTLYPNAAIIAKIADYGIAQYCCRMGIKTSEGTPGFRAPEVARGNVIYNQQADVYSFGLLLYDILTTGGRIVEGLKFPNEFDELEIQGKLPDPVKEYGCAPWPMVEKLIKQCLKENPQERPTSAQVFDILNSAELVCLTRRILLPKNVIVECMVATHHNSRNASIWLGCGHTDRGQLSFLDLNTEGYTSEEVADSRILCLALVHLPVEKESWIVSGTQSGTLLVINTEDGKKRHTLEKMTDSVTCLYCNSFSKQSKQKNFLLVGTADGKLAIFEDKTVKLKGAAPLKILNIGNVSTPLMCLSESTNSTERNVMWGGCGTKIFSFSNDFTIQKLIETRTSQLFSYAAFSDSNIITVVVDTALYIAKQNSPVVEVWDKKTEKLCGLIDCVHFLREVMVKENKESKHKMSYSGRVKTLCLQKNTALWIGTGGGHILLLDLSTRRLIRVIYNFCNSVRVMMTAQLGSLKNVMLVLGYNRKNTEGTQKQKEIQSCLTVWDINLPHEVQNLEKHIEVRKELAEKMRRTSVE
Keep in mind that pIC50 stands for -log10 of concentration in molar terms.

A selection of reference data follows.
[
  {
    "MOLECULE": "COC[C@H](C)n1c(C#N)cc2cnc(Nc3cn(CS(C)(=O)=O)nc3OC3COC3)nc21",
    "TARGET_DESC": "full-length LRRK2 wild type (Homo sapiens)",
    "pIC50": 8.10
  },
  {
    "MOLECULE": "CC(C)Oc1nn(C(C)(C)C#N)cc1Nc1ncc2cc(C#N)n(C3COC3)c2n1",
    "TARGET_DESC": "full-length LRRK2 wild type (Homo sapiens)",
    "pIC50": 7.70
  },
  {
    "MOLECULE": "COC[C@H](C)n1c(C#N)cc2cnc(Nc3cn(C)nc3O[C@@H]3CO[C@H]3C)nc21 (single isomer, unassigned) [Example 87]",
    "TARGET_DESC": "full-length LRRK2 wild type (Homo sapiens)",
    "pIC50": 8.10
  },
  {
    "MOLECULE": "COCCn1cc(Nc2ncc3cc(C#N)n([C@H]4COC[C@@H]4C)c3n2)c(OC2CC2)n1",
    "TARGET_DESC": "full-length LRRK2 wild type (Homo sapiens)",
    "pIC50": 7.57
  }
]

Param readout= pIC50; system= full-length LRRK2 wild type (Homo sapiens); entry= [2H]C([2H])([2H])n1cc(Nc2ncc3cc(C#N)n([C@@H](C)COC)c3n2)c(OC2CC(O)C2(C)C)n1 (stereo partly shown) [Example 108] ; returns value.
8.00

Look up pIC50 with full-length LRRK2 wild type (Homo sapiens) for this molecule: [2H]C([2H])([2H])n1cc(Nc2ncc3cc(C#N)n([C@@H](C)COC)c3n2)c(O[C@@H]2CO[C@H]2C)n1 (single isomer, unassigned)
8.05

Could you share what pIC50 was measured for CC(CO)n1cc(Nc2ncc3cc(C#N)n([C@H]4COC[C@@H]4C)c3n2)c(OC2COC2)n1 (stereo partly shown) , tested on full-length LRRK2 wild type (Homo sapiens)?
8.30
